- system: T1, human CD40L, membrane-bound on cells (human, UniProt P29965 1-261)
- T1 sequence: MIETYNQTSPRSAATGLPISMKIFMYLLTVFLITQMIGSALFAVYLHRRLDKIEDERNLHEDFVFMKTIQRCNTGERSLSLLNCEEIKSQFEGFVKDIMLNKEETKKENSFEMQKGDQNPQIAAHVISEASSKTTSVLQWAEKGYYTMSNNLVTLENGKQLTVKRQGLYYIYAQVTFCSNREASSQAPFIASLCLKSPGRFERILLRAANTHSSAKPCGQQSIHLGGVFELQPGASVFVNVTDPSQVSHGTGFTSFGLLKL
- assayComment: cell-based or functional assay
parameter: T-B cell MLR IL-6 EC50 (nM)

a: 2h572-6-CT Long Fc (Fc fusion, not shown: linker and CT Long Fc (CT-L2)) EVQLLESGGGLVQPGGSLRLSCAASGFTFNWQLMGWVRQAPGKGLEWVSGIEGPGDVTYYADSVKGRFTISRDNSKNTLYLQMNSLRAEDTAVYYCVKVGKESNSDYRGQGTLVTVSS
b: 2h572-633-CT Long Fc (Fc fusion, not shown: linker and CT Long Fc (CT-L2)) EVQLLESGGGLVQPGGSLRLSCAASGFTFNWELMGWARQAPGKGLEWVSGIEGPGDVTYYADSVKGRFTISRDNSKNTLYLQMNSLRAEDTAVYYCVKVGKDAKSDYRGQGTLVTVSS
Query string: Endpoint returns the identifier whose T-B cell MLR IL-6 EC50 is numerically larger, either a or b . Your answer should be the label attached to the chosen record.
Result string: a
